Assign CD28 MFI at 33.3 nM to each entry below.
# system under test: CD28 (Homo sapiens, UniProt P10747)
# assay info: Flow binding to Jurkat/IL2 reporter cells (CD28)
# Parameters: host or cells: Jurkat cells expressing an IL-2-luciferase reporter
# condition context: Table E23; CD80 IgV-Fc (inert) at 33.3 nM; Jurkat (CD28)
Give bare numbers.

Consider the reported CD28 MFI at 33.3 nM for these molecules:
INSERT INTO results (molecule, value_reported) VALUES
  ('H18I/A26P/E35D/M47V/V68M/A71G (protein, UniProt P33681 35-288, looked up, variant H18I A26P E35D M47V V68M A71G) T-lymphocyte activation …: VIHVTKEVKEVATLSCGINVSVEELPQTRIYWQKDKKMVLTMMSGDVNIWPEYKNRTIFDITNNLSIMILGLRPSDEGTYECVVLKYEKDAFKREHLAEVTLSVKADFPTPSISDFEIPTSNIRRIICSTSGGFPEPHLSWLENGEELNAINTTVSQDPETELYAVSSKLDFNMTTNHSFMCLIKYGHLRVNQTFNWNTTKQEHFPDNLLPSWAITLISVNGIFVICCLTYCFAPRCRERRRNERLRRESVRPV', 2573),
  ('A26P/E35D/M47I/V68M/A71G/D90G (protein, UniProt P33681 35-288, looked up, variant A26P E35D M47I V68M A71G D90G) T-lymphocyte activation …: VIHVTKEVKEVATLSCGHNVSVEELPQTRIYWQKDKKMVLTMMSGDINIWPEYKNRTIFDITNNLSIMILGLRPSDEGTYECVVLKYEKGAFKREHLAEVTLSVKADFPTPSISDFEIPTSNIRRIICSTSGGFPEPHLSWLENGEELNAINTTVSQDPETELYAVSSKLDFNMTTNHSFMCLIKYGHLRVNQTFNWNTTKQEHFPDNLLPSWAITLISVNGIFVICCLTYCFAPRCRERRRNERLRRESVRPV', 8189);

The molecule H18V/E35D/M47V/V68M/A71G/D90G (protein, UniProt P33681 35-288, looked up, variant H18V E35D M47V V68M A71G D90G) T-lymphocyte activation …: VIHVTKEVKEVATLSCGVNVSVEELAQTRIYWQKDKKMVLTMMSGDVNIWPEYKNRTIFDITNNLSIMILGLRPSDEGTYECVVLKYEKGAFKREHLAEVTLSVKADFPTPSISDFEIPTSNIRRIICSTSGGFPEPHLSWLENGEELNAINTTVSQDPETELYAVSSKLDFNMTTNHSFMCLIKYGHLRVNQTFNWNTTKQEHFPDNLLPSWAITLISVNGIFVICCLTYCFAPRCRERRRNERLRRESVRPV showed CD28 MFI at 33.3 nM equal to 2115
